# Tested on: Ctenocephalides felis
# Run description: Ctenocephalides felis oral test
# Format: in vivo
# Assay conditions: 100 ppm in citrated cattle blood; after 2 days
# Protocol: • Solvent: Dimethyl Sulfoxide To produce a suitable active ingredient formulation, 10 mg of active ingredient are mixed with 0.5 ml of dimethyl sulfoxide. Dilution with citrated cattle blood gives the desired concentration. About 20 unfed adult cat fleas (Ctenocephalides fells) are placed into a chamber which is closed at the top and bottom with gauze. A metal cylinder whose bottom end is closed with parafilm is placed onto the chamber. […]

- Compound string: "CC(C)CC(=O)NCc1cc(-c2cnn(-c3c(Cl)cc(C(F)(C(F)(F)F)C(F)(F)F)cc3C(F)F)c2)ccc1F"
  efficacy (rate of extermination) [%]: 100
- Compound string: "CCC(=O)NCc1cc(-c2cnn(-c3c(Cl)cc(C(F)(C(F)(F)F)C(F)(F)F)cc3OC(F)(F)F)c2)ccc1F"
  efficacy (rate of extermination) [%]: 100
- Compound string: "CC(=O)NCc1cccc(-c2cnn(-c3c(Cl)cc(C(F)(C(F)(F)F)C(F)(F)F)cc3C(F)(F)F)c2)c1F"
  efficacy (rate of extermination) [%]: 100
- Compound string: "O=C(NCc1cc(-c2cnn(-c3c(Cl)cc(C(F)(C(F)(F)F)C(F)(F)F)cc3OC(F)(F)F)c2)ccc1Cl)C1CC1"
  efficacy (rate of extermination) [%]: 100
- Compound string: "CC(=O)NCc1cc(-c2cnn(-c3c(Cl)cc(C(F)(C(F)(F)F)C(F)(F)F)cc3Cl)c2)ccc1Cl"
  efficacy (rate of extermination) [%]: 100
- Compound string: "CCC(=O)NCc1cc(-c2cnn(-c3c(Cl)cc(C(F)(C(F)(F)F)C(F)(F)F)cc3C(F)(F)F)c2)ccc1Cl"
  efficacy (rate of extermination) [%]: 100
- Compound string: "CC(=O)NCc1c(F)ccc(-c2cnn(-c3c(Cl)cc(C(F)(C(F)(F)F)C(F)(F)F)cc3C(F)F)c2)c1F"
  efficacy (rate of extermination) [%]: 100
